The reported measurements were obtained from the supplement of paper PMC10307832.

# Test system: NCI-H1355
# experimental-protocol: relative viability (nuclei count vs DMSO), 5 days (fraction); higher = more cells survive
# condition-details: first compound 0.02 µM
Hi there, I'd appreciate the recorded relative viability for every entry that follows.
Give bare numbers.

>  <compound>
CCNC(=O)c1noc(-c2cc(C(C)C)c(O)cc2O)c1-c1ccc(CN2CCOCC2)cc1 [Luminespib] + CS(=O)(=O)CCNCc1ccc(-c2ccc3ncnc(Nc4ccc(OCc5cccc(F)c5)c(Cl)c4)c3c2)o1 [Lapatinib] (partner 2 µM)

>  <system-tested>
NCI-H1355

>  <readout-number>
0.461

$$$$
>  <compound>
CCNC(=O)c1noc(-c2cc(C(C)C)c(O)cc2O)c1-c1ccc(CN2CCOCC2)cc1 [Luminespib] + N=C(N)NC(=N)NCCc1ccccc1 [Phenformin] (partner 250 µM)

>  <system-tested>
NCI-H1355

>  <readout-number>
0.382

$$$$
>  <compound>
CCNC(=O)c1noc(-c2cc(C(C)C)c(O)cc2O)c1-c1ccc(CN2CCOCC2)cc1 [Luminespib] + Cc1nc(NC(=O)N2CCC[C@H]2C(N)=O)sc1-c1ccnc(C(C)(C)C(F)(F)F)c1 [Alpelisib] (partner 2 µM)

>  <system-tested>
NCI-H1355

>  <readout-number>
0.403

$$$$

Read the next record carefully.
Query :: Look up relative viability of CN1CCN(CCOc2cc(OC3CCOCC3)c3c(Nc4c(Cl)ccc5c4OCO5)ncnc3c2)CC1 [Saracatinib] + N=C(N)NC(=N)NCCc1ccccc1 [Phenformin] (partner 250 µM) and report it.
Result :: 0.453
